// data source = PubChem BioAssay AID463173

# Test system: DeltatarO mutant
# EXPERIMENT DESCRIPTION: S. aureus survival, RN4220 and DeltatarO strains – OD600, teichoic acid synthesis inhibitors, primary screen (AID 463173)
# CONDITION INFO: S. aureus RN4220 wild type/DeltatarO growth, OD600, 18 h, stronger effect = lower value, screened at 18.75 µg/mL (by protocol)
Among all 52,000 compounds or so, about 4,300 (8.3%) were called active. For the sample, actives were picked, then their nearest neighbours and some compounds at random.
One threshold, 60%, splits the recorded survival values: lower ones are fulfilled, equal or higher ones are not fulfilled.

[ask] Item COc1ccccc1CNS(=O)(=O)c1cc(Br)cc2c1N(C(=O)C1CC1)CC2 : survival beneath 60%, strictly?
[reply] fulfilled

[ask] Decide: survival of CC(C)c1ccc(NS(=O)(=O)c2cc(Br)cc3c2N(C(=O)C2CC2)CC3)cc1 strictly below 60%?
[reply] fulfilled

[ask] Given the entry CCOc1ccc(CCNC(=O)c2cnc3sc(N4CCC(C)CC4)nn3c2=O)cc1 , would its reported survival be below 60%?
[reply] not fulfilled

[ask] Please let me know if COc1cc(NS(=O)(=O)c2cc(Br)cc3c2N(C(=O)C2CC2)CC3)cc(OC)c1 shows survival below 60%.
[reply] not fulfilled

[ask] Lab log: compare recorded survival with 60%; is it strictly lower for CC(=O)Nc1ccc(NS(=O)(=O)c2cc(Br)cc3c2N(C(=O)C2CC2)CC3)cc1 ?
[reply] not fulfilled

[ask] Problem: For the molecule CCc1ccccc1NS(=O)(=O)c1cc(Br)cc2c1N(C(=O)C1CC1)CC2 , is survival under 60%?
[reply] fulfilled
